tested on: MDA-MB-231 breast; test: NCI-60 one-dose screen, 48 h; settings: 10 µM unless noted
Compounds without any hit were thinned out: in the full panel of roughly 83,000, 20% have a hit. The source made the active and inactive calls. Rule for the calls: active = growth percent below 10; inactive = the rest.
Output constraint: value belongs to True = active, False = inactive

Worked examples follow.
{"columns": ["COMPOUND", "ASSIGNED CLASS"],
 "data": [
  ["COc1cc(C2CC(c3ccc(Cl)cc3)=NN2C=O)ccc1OS(=O)(=O)c1ccc(C)cc1 (configuration not stated)", "False"],
  ["Nc1nonc1-c1nc2ccccc2n1Cc1ccc(F)cc1", "False"],
  ["NC(N)=N/N=C\\c1ccc(OCc2ccccc2)cc1", "False"],
  ["CCN(CC)Cc1cc(Nc2nc(NC3CCC(N(C)C)CC3)c3ccccc3n2)ccc1OC (configuration not stated)", "False"]
]}

GET /call?item= Oc1ccc(Nc2ncnc3c2sc2ncccc23)cc1 returns the recorded outcome of this test.
False

###

Below, each entry is listed with its recorded growth.
tested on: TK-10 renal; assay: NCI-60 one-dose screen, 48 h (100 = growth as untreated, 0 = no growth, -100 = all killed); conditions: 10 µM unless noted
The panel holds about 83,000 compounds, 20% with a hit somewhere; the sample as a whole holds those more often.
Kindly answer with a numeric value in %, unit omitted.

Reference set, count: 9
{"columns": ["MOLECULE", "growth, %"],
 "data": [
  ["O=C(Nc1cnc(C(F)(F)F)cn1)c1cc(Cl)ccc1O", 1.77],
  ["CCCCNCCC(O)c1cc2ccc(C(F)(F)F)cc2c2cc(C(F)(F)F)ccc12 (stereo not given)", -91.8],
  ["C=CCn1c(C)nc2cc(Nc3nc(N4CCCC4)nc4nc[nH]c34)ccc21", 11.8],
  ["Clc1ccc(-c2nc(Br)cn3ccnc23)cc1", 85.7],
  ["O=C(Nc1cccc(Cl)c1)Nc1cc(C(F)(F)F)ccc1Cl", 16.9],
  ["O=C1c2ccccc2C2N1CCC1CCc3ccccc3N12 (stereo not given)", 108],
  ["Nc1c(C(=O)Nc2cccc(Cl)c2)sc2ncc(Br)cc12", 57.9],
  ["COc1ccc(-c2cn(-c3cccc(C(=O)/C=C/c4ccc(O)c(OC)c4)c3)c(=O)[nH]2)cc1", 35.6],
  ["COC(=O)/C=C/c1cc(OC(C)=O)c2c(c1)[C@@H](C(=O)OC)[C@H](c1ccc(OC(C)=O)c(OC(C)=O)c1)O2", 48.5]
]}

Consider the record given below.
Entry under review: COc1ccccc1NC(=O)OCC12COCN1COC2 . Reported growth?
108

###

tested on: UACC-62 melanoma; test: NCI-60 one-dose screen, 48 h (100 = growth as untreated, 0 = no growth, -100 = all killed); details: 10 µM unless noted
About 83,000 compounds went through this panel and 20% of them were active in at least one assay; those are over-represented in the sample as a whole.
If the reported growth equals or exceeds 30%, assign satisfied. If not, assign not satisfied.

Past entries and their recorded results:
{"columns": ["COMPOUND", "ASSIGNED CLASS"],
 "data": [
  ["Oc1c(C(c2ccc(F)cc2)N2CCCCC2)ccc2cncnc12 (configuration not stated)", "not satisfied"],
  ["CSC1=NC(=Nc2c(C)cccc2C)C2(CCC(C(C)(C)C)CC2)N1c1ccc(Cl)cc1 (configuration not stated)", "satisfied"],
  ["Cc1c(O)c(=O)n(-c2ccccc2)n1C", "satisfied"],
  ["COc1ccc(C2=Nn3c(nnc3-c3ccc(Cl)cc3N)SC2)cc1", "satisfied"]
]}

# check: growth of NC(N)=N/N=C/c1ccccc1 is greater than or equal to 30%
satisfied

Okay, and Nc1cc2nc3ccccc3oc-2cc1=O ?
not satisfied

Please give the result for Fc1cc(-c2nnc3sc(-c4ccc(Cl)cc4)nn23)c(Cl)cc1Cl too.
satisfied

// same read-out, input: CCn1c(CN2CCN(Cc3ccccc3)CC2)nc2cc(NC(=O)c3cccs3)ccc21
not satisfied

// repeat for COc1cccc(NC(=O)[C@H](C(C)C)n2c(=O)[nH]c3ccccc3c2=O)c1 and report
satisfied

Queued: COc1cc(NC(C)CCCN)c2ncccc2c1Oc1ccc(Cl)cc1 (configuration not stated)
satisfied

Would you kindly repeat that for COc1cc2c(cc1OC)C(=O)C(Br)CC2 (configuration not stated) ?
satisfied

Please answer likewise for CC(CN1CCN(CCOCCO)CC1)CN1c2ccccc2Sc2ccc(Cl)cc21 (configuration not stated)
not satisfied
